# system under test: vesicular monoamine transporter (VMAT2) (Rattus norvegicus)
# Construct: Rat brain; from tissue; host or cells: rat brain minus cerebellum, membrane fraction
# Sequence (Q01827 whole entry): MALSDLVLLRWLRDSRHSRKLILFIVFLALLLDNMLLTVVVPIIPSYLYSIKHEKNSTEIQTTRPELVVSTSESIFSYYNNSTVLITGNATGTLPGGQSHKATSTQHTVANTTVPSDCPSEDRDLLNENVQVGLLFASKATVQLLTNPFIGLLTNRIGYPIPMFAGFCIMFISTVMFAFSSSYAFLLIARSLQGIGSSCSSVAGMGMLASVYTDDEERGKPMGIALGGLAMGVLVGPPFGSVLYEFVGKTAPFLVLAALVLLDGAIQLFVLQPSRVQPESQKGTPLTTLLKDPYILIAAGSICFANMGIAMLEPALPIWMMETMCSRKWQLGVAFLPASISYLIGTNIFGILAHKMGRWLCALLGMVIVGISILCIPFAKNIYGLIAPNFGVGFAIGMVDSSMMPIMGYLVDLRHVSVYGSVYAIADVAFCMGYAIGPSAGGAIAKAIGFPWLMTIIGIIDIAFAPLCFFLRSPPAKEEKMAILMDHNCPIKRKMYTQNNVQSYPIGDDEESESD
# measurement notes: Competitive radioligand binding assay, VMAT2 transporter (antagonist radioligand)
# conditions used: compound at 10 μM; [3H]dihydrotetrabenazine 10 nM; rat brain (minus cerebellum); read-out: % Inhibition of Binding at Each Transporter or Receptor Target, VMAT2
Counter-ions that a name gives are not always drawn.
# cutoff 7% applies to inhibition at 10 µM; >= gives YES, < gives NO

compound	class name
NC(=O)NC[C@H](N)Cc1ccccc1 [Compound 3, hydrochloride]	NO
N[C@@H](COS(N)(=O)=O)Cc1ccccc1 [Compound 9, hydrochloride]	YES
NC(=O)CC[C@H](N)Cc1ccccc1 [Compound 4, hydrochloride]	NO
NC(=O)SC[C@H](N)Cc1ccccc1 [Compound 10, hydrochloride]	NO
NC(=S)OC[C@H](N)Cc1ccccc1 [Compound 8, dihydrochloride]	NO
